Data credit: ChEMBL document CHEMBL4406852

test system: Candida tropicalis; assay: Antifungal activity against Candida tropicalis GIM 2.183 assessed as reduction in fungal growth incubated for 24 hrs by serial dilution method; assay type: functional; settings: GIM 2.183, 24 h
property_name: MIC

Recorded results for 5 compounds are shown here.
compound	MIC
O=C(NC(Cn1ccnc1)C(=O)c1ccccc1)c1ccc(-c2ccccc2)cc1Cl (centres undefined)	> 16 µg/mL
O=C(NC(Cn1ccnc1)C(=O)c1ccccc1)c1ccc(-c2ccccc2)c(F)c1 (centres undefined)	0.06 µg/mL
O=C(NC(Cn1ccnc1)C(=O)c1ccccc1F)c1ccc(-c2ccccc2)cc1 (centres undefined)	1 µg/mL
O=C(NC(Cn1ccnc1)C(=O)c1ccc(F)cc1)c1ccc(-c2ccccc2)c(F)c1 (centres undefined)	0.25 µg/mL
O=C(NC(Cn1ccnc1)C(=O)c1cccc(F)c1)c1ccc(-c2ccccc2)c(F)c1 (centres undefined)	1 µg/mL

// moving on: another record for MIC
Challenge: Given O=C(NC(Cn1ccnc1)C(=O)c1cccc(Cl)c1)c1ccc(-c2ccccc2)c(F)c1 (centres undefined) , state its recorded MIC.
Response given: 0.125 µg/mL

* * *

assay: Cytotoxicity against human A549 cells assessed as cell survival at 2 uM/l incubated for 24 hrs by MTT assay relative to control; type: cell-based; settings: read-out: Activity
property_name: viability at 24 h, 2 µM (%)
Hi! Could you send only the number? It should be in %, unit omitted.

molecule	viability at 24 h, 2 µM (%)
OC(Cn1cncn1)(Cn1cncn1)c1ccc(F)cc1F	95.7

Challenge: Given O=C(NC(Cn1ccnc1)C(=O)c1cccc(Cl)c1)c1ccc(-c2ccccc2)cc1 (stereo not given) , state its recorded viability at 24 h, 2 µM.
Response given: 97.2

Challenge: Given O=C(NC(Cn1ccnc1)C(=O)c1ccc(F)cc1)c1ccc(-c2ccccc2)cc1F (stereo not given) , state its recorded viability at 24 h, 2 µM.
Response given: 100

Challenge: Given Cc1ccc(C(=O)C(Cn2ccnc2)NC(=O)c2ccc(-c3ccccc3)c(F)c2)cc1 (stereo not given) , state its recorded viability at 24 h, 2 µM.
Response given: 97

Challenge: Given O=C(NC(Cn1ccnc1)C(=O)c1ccccc1F)c1ccc(-c2ccccc2)cc1 (stereo not given) , state its recorded viability at 24 h, 2 µM.
Response given: 100

* * *

tested on: Candida albicans; experiment: Antifungal activity against fluconazole-resistant Candida albicans 901 assessed as reduction in fungal growth incubated for 24 hrs by serial dilution method; type: functional; conditions: Candida albicans, 901, 24 h
So basically, if MIC comes in under 1 µg/mL it's Met, and if it's 1 µg/mL or more it's Not met.

compound	label_value
O=C(NC(Cn1ccnc1)C(=O)c1ccccc1F)c1ccc(-c2ccccc2)cc1 (configuration not stated)	Met
Cc1ccc(C(=O)C(Cn2ccnc2)NC(=O)c2ccc(-c3ccccc3)c(F)c2)cc1 (configuration not stated)	Not met
O=C(NC(Cn1ccnc1)C(=O)c1ccc(Cl)cc1)c1ccc(-c2ccccc2)cc1F (configuration not stated)	Not met
O=C(NC(Cn1ccnc1)C(=O)c1ccccc1F)c1ccc(-c2ccccc2)cc1F (configuration not stated)	Not met
O=C(NC(Cn1ccnc1)C(=O)c1ccccc1F)c1ccc(-c2ccccc2)c(F)c1 (configuration not stated)	Met

Challenge: Confirm or reject: MIC of O=C(NC(Cn1ccnc1)C(=O)c1ccc(F)cc1)c1ccc(-c2ccccc2)c(F)c1 (configuration not stated) lies strictly below 1 µg/mL
Response given: Not met

* * *

As shown below, each of these compounds has a reported viability at 24 h, 0.4 µM value.
test: Cytotoxicity against human A549 cells assessed as cell survival at 0.4 uM/l incubated for 24 hrs by MTT assay relative to control; format: cell-based; settings: read-out: Activity
Hi! Could you send only the number? It should be in %, unit omitted.

compound	numeric_result
O=C(NC(Cn1ccnc1)C(=O)c1cccc(Cl)c1)c1ccc(-c2ccccc2)cc1 (stereo not given)	97.4

Challenge: Given Cc1ccc(C(=O)C(Cn2ccnc2)NC(=O)c2ccc(-c3ccccc3)c(F)c2)cc1 (stereo not given) , state its recorded viability at 24 h, 0.4 µM.
Response given: 100

Challenge: Given O=C(NC(Cn1ccnc1)C(=O)c1ccccc1F)c1ccc(-c2ccccc2)cc1 (stereo not given) , state its recorded viability at 24 h, 0.4 µM.
Response given: 100

Challenge: Given OC(Cn1cncn1)(Cn1cncn1)c1ccc(F)cc1F [FLUCONAZOLE] , state its recorded viability at 24 h, 0.4 µM.
Response given: 99.1

Challenge: Given O=C(NC(Cn1ccnc1)C(=O)c1ccc(F)cc1)c1ccc(-c2ccccc2)cc1F (stereo not given) , state its recorded viability at 24 h, 0.4 µM.
Response given: 100

* * *

system: Candida tropicalis; experiment: Antifungal activity against Candida tropicalis GIM 2.183 assessed as reduction in fungal growth incubated for 24 hrs by serial dilution method; assay type: functional; conditions: GIM 2.183, 24 h
So basically, if MIC comes in under 0.2 µg/mL it's yes, and if it's 0.2 µg/mL or more it's no.

Use the examples below as a reference point.
compound	label_value
O=C(NC(Cn1ccnc1)C(=O)c1ccccc1)c1ccc(-c2ccc(Cl)cc2)cc1 (stereo not given)	no
O=C(NC(Cn1ccnc1)C(=O)c1ccccc1)c1ccc(-c2ccccc2F)cc1 (stereo not given)	no
Cc1cc(-c2ccccc2)ccc1C(=O)NC(Cn1ccnc1)C(=O)c1ccccc1 (stereo not given)	no
Cc1ccc(C(=O)C(Cn2ccnc2)NC(=O)c2ccc(-c3ccccc3)c(F)c2)cc1 (stereo not given)	yes
O=C(NC(Cn1ccnc1)C(=O)c1ccccc1F)c1ccc(-c2ccccc2)cc1F (stereo not given)	no

Challenge: Confirm or reject: MIC of O=C(NC(Cn1ccnc1)C(=O)c1cccc(F)c1)c1ccc(-c2ccccc2)cc1 (stereo not given) lies strictly below 0.2 µg/mL
Response given: no

Challenge: Confirm or reject: MIC of OC(Cn1cncn1)(Cn1cncn1)c1ccc(F)cc1F lies strictly below 0.2 µg/mL
Response given: no

Challenge: Confirm or reject: MIC of O=C(NC(Cn1ccnc1)C(=O)c1ccccc1)c1ccc(-c2cccc(F)c2)cc1 (stereo not given) lies strictly below 0.2 µg/mL
Response given: yes

Challenge: Confirm or reject: MIC of O=C(NC(Cn1ccnc1)C(=O)c1ccccc1)c1ccc(-c2ccc(F)cc2)cc1 (stereo not given) lies strictly below 0.2 µg/mL
Response given: no

Challenge: Confirm or reject: MIC of CCC(C)n1ncn(-c2ccc(N3CCN(c4ccc(OCC5COC(Cn6cncn6)(c6ccc(Cl)cc6Cl)O5)cc4)CC3)cc2)c1=O (stereo not given) lies strictly below 0.2 µg/mL
Response given: yes

Challenge: Confirm or reject: MIC of Cc1cc(C(=O)NC(Cn2ccnc2)C(=O)c2ccccc2)ccc1-c1ccccc1 (stereo not given) lies strictly below 0.2 µg/mL
Response given: no

* * *

target: Lanosterol 14-alpha demethylase (Candida albicans (strain SC5314 / ATCC MYA-2876) (Yeast)); assay: Inhibition of Candida albicans CYP51 assessed as increase in sterol level at 0.015 ug/ml incubated for 18 hrs by GC/MS analysis relative to control; parameters: scale not given: the % may be the effect or the level left
Sequence (P10613 whole entry): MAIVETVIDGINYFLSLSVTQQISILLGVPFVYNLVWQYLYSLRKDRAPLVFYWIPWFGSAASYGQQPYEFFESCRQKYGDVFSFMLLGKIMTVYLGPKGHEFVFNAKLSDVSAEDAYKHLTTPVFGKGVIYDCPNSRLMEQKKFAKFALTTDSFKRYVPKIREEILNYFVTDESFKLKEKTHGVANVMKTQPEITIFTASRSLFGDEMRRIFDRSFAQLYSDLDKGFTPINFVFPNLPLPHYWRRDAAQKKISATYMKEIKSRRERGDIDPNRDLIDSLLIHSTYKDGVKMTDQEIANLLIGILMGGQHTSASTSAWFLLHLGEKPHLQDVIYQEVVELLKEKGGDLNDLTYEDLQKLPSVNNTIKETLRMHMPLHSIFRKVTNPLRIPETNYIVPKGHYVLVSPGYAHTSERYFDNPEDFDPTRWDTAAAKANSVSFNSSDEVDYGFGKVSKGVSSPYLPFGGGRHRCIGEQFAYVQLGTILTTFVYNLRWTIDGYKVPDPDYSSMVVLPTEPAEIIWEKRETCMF
property_name: Activity

Challenge: Activity of Cc1ccc(C(=O)C(Cn2ccnc2)NC(=O)c2ccc(-c3ccccc3)c(F)c2)cc1 (stereo unspecified) on Lanosterol 14-alpha demethylase (Candida albicans (strain SC5314 / ATCC MYA-2876) (Yeast))?
Response given: 3.04 to 5.85%

* * *

tested on: Candida tropicalis; assay: Antifungal activity against Candida tropicalis GIM 2.183 assessed as reduction in fungal growth incubated for 24 hrs by serial dilution method; assay type: functional; details: GIM 2.183, 24 h
As shown below, each of these compounds has a reported MIC value.

Challenge: Given Cc1cccc(-c2ccc(C(=O)NC(Cn3ccnc3)C(=O)c3ccccc3)cc2)c1 (stereo not drawn) , state its recorded MIC.
Response given: > 16 µg/mL

Challenge: Given O=C(NC(Cn1ccnc1)C(=O)c1ccc(Cl)cc1)c1ccc(-c2ccccc2)c(F)c1 (stereo not drawn) , state its recorded MIC.
Response given: 0.06 µg/mL

Challenge: Given O=C(NC(Cn1ccnc1)C(=O)c1cccc(Cl)c1)c1ccc(-c2ccccc2)cc1 (stereo not drawn) , state its recorded MIC.
Response given: 0.03 µg/mL

* * *

test system: Candida albicans; test: Antifungal activity against fluconazole-resistant Candida albicans 901 assessed as reduction in fungal growth incubated for 24 hrs by serial dilution method; format: functional; conditions: Candida albicans, 901, 24 h
As shown below, each of these compounds has a reported MIC value.
Hi! Could you send only the number? It should be in µg/mL, unit omitted.

compound	MIC (µg/mL)
O=C(NC(Cn1ccnc1)C(=O)c1cccc(F)c1)c1ccc(-c2ccccc2)cc1 (stereo unspecified)	0.25
O=C(NC(Cn1ccnc1)C(=O)c1ccccc1)c1ccc(-c2ccccc2)cc1 (stereo unspecified)	0.5

Challenge: Given O=C(NC(Cn1ccnc1)C(=O)c1ccc(Cl)cc1)c1ccc(-c2ccccc2)cc1 (stereo unspecified) , state its recorded MIC.
Response given: 2

Challenge: Given O=C(NC(Cn1ccnc1)C(=O)c1ccccc1)c1ccc(-c2ccccc2)c(F)c1 (stereo unspecified) , state its recorded MIC.
Response given: 0.25

Challenge: Given O=C(NC(Cn1ccnc1)C(=O)c1cccc(Cl)c1)c1ccc(-c2ccccc2)c(F)c1 (stereo unspecified) , state its recorded MIC.
Response given: 4

Challenge: Given Cc1ccc(C(=O)C(Cn2ccnc2)NC(=O)c2ccc(-c3ccccc3)cc2)cc1 (stereo unspecified) , state its recorded MIC.
Response given: 16

Challenge: Given O=C(NC(Cn1ccnc1)C(=O)c1ccc(F)cc1)c1ccc(-c2ccccc2)cc1 (stereo unspecified) , state its recorded MIC.
Response given: 1

Challenge: Given O=C(NC(Cn1ccnc1)C(=O)c1cccc(Cl)c1)c1ccc(-c2ccccc2)cc1 (stereo unspecified) , state its recorded MIC.
Response given: 1

Challenge: Given O=C(NC(Cn1ccnc1)C(=O)c1cccc(F)c1)c1ccc(-c2ccccc2)cc1F (stereo unspecified) , state its recorded MIC.
Response given: 2

Challenge: Given O=C(NC(Cn1ccnc1)C(=O)c1cccc(F)c1)c1ccc(-c2ccccc2)c(F)c1 (stereo unspecified) , state its recorded MIC.
Response given: 0.25
